- ASSAY TARGET: Delta-type opioid receptor (Homo sapiens)
- Sequence (P41143 whole entry): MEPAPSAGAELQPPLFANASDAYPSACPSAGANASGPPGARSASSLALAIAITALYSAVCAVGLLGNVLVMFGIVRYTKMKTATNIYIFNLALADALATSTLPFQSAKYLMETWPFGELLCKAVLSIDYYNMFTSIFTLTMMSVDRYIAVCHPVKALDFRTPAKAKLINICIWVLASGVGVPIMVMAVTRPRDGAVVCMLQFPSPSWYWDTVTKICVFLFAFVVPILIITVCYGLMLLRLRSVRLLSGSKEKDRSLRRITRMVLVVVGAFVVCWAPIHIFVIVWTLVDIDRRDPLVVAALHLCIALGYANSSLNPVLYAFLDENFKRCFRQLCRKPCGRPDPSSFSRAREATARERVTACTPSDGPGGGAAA
- METHOD DESCRIPTION: Displacement of [3H]-Diprenorphine from recombinant human delta opioid receptor expressed in CHO cell membrane incubated for 60 mins by liquid scintillation counting method
Numbered stars: 1 amine (or outer) side, 2 acyl side, 3 side chain; on linkers, the order of the positions; unused ones are H or OH. Square brackets hold non-standard residues; d marks the D form. Peptide text beside a SMILES is read from it. X1 = O=C1[C@@H](N[*:1])Cc2ccccc2CN1CCC(=O)[*:2]; Dmt = Cc1cc(O)cc(C)c1C[C@H](N)C(=O)O; β3hR = N=C(N)NCCC[C@H](N)CC(=O)O; Tle = CC(C)(C)[C@H](N)C(=O)O
READOUT TYPE: pKi
One number for each entry, as −log10 of the molar value.

Here is how some compounds turned out for pKi.
COMPOUND	ASSAY TARGET	NUMERIC READOUT
Cc1cc(O)cc(C)c1C[C@H](N)C(=O)N[C@H](CCCCN)C(=O)N[C@@H](Cc1ccccc1)C(=O)N[C@@H](Cc1ccccc1)C(=O)N[C@@H](CCCCN)C(=O)N[C@@H](CCCCN)C(=O)N1CCC[C@H]1C(=O)N[C@@H](Cc1ccccc1)C(=O)N[C@H](C(=O)N[C@@H](CC(C)C)C(=O)O)C(C)(C)C (H-[Dmt][dK]FFKKPF[Tle]L-OH)	Delta-type opioid receptor (Homo sapiens)	7.33
Cc1cc(O)cc(C)c1C[C@H](NC(=O)[C@@H]1CCCN1C(=O)[C@H](CCCNC(=N)N)NC(=O)C[C@H](CCCNC(=N)N)NC(=O)CCN1Cc2ccccc2C[C@H](NC(=O)[C@@H](CCCNC(=N)N)NC(=O)[C@@H](N)Cc2c(C)cc(O)cc2C)C1=O)C(=O)N[C@H](C(=O)N[C@@H](CC(C)C)C(=O)O)C(C)(C)C (H-[Dmt][dR][X1][β3hR]RP[Dmt][Tle]L-OH)	Delta-type opioid receptor (Homo sapiens)	7.00

Please find the next compound below.
Recorded pKi of `Cc1cc(O)cc(C)c1C[C@H](N)C(=O)N[C@H](CCCNC(=N)N)C(=O)N[C@H]1Cc2ccccc2CN(CCC(N)=O)C1=O` , please. 8.82

====

- ASSAY TARGET: Mu-type opioid receptor (Homo sapiens, UniProt P35372)
- Sequence (P35372 whole entry): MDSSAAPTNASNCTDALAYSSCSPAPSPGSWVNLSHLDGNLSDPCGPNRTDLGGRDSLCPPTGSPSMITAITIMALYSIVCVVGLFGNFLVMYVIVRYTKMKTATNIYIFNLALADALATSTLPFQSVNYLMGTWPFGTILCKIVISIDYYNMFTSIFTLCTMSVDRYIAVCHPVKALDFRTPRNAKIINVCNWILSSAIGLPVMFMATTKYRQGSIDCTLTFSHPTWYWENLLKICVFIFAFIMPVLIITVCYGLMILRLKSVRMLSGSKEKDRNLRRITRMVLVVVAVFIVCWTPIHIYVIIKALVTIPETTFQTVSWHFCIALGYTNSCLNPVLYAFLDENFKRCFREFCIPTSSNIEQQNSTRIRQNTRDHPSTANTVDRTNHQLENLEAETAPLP
- METHOD DESCRIPTION: Agonist activity at human MOR expressed in human U2OS cells assessed as increase in beta arrestin2 recruitment incubated for 90 mins by pathhunter beta-arrestin assay relative to DAMGO
- Type: cell-based
- MEASUREMENT CONDITIONS: filed as partial agonist
Numbered stars: 1 amine (or outer) side, 2 acyl side, 3 side chain; on linkers, the order of the positions; unused ones are H or OH. Square brackets hold non-standard residues; d marks the D form. Peptide text beside a SMILES is read from it. X1 = O=C1[C@@H](N[*:1])Cc2ccccc2CN1CCC(=O)[*:2]; X2 = O=C([C@@H]1Cc2cc(O)ccc2CN1[*:1])[*:2]; Dmt = Cc1cc(O)cc(C)c1C[C@H](N)C(=O)O; mTyr = N[C@@H](Cc1cccc(O)c1)C(=O)O; Tle = CC(C)(C)[C@H](N)C(=O)O; β3hK = NCCCC[C@H](N)CC(=O)O
READOUT TYPE: Emax (%)
One number for each entry, in %.

Here is how some compounds turned out for Emax.
COMPOUND	UNITS TEXT	Emax
Cc1cc(O)cc(C)c1C[C@H](NC(=O)[C@@H]1CCCN1C(=O)[C@H](CCCCN)NC(=O)C[C@H](CCCCN)NC(=O)CCN1Cc2ccccc2C[C@H](NC(=O)[C@@H](CCCNC(=N)N)NC(=O)[C@@H](N)Cc2c(C)cc(O)cc2C)C1=O)C(=O)N[C@H](C(=O)N[C@@H](CC(C)C)C(=O)O)C(C)(C)C (H-[Dmt][dR][X1][β3hK]KP[Dmt][Tle]L-OH)	%	69
Cc1cc(O)cc(C)c1C[C@H](N)C(=O)N[C@H](CCCNC(=N)N)C(=O)N[C@H]1Cc2ccccc2CN(CCC(=O)N[C@@H](CCCNC(=N)N)C(=O)N[C@@H](CCCNC(=N)N)C(=O)N2CCC[C@H]2C(=O)N2Cc3ccc(O)cc3C[C@H]2C(=O)N[C@H](C(=O)N[C@@H](CC(C)C)C(=O)O)C(C)(C)C)C1=O (H-[Dmt][dR][X1]RRP[X2][Tle]L-OH)	%	67

Please find the next compound below.
Recorded Emax of Cc1cc(O)cc(C)c1C[C@H](N)C(=O)N[C@H](CCCNC(=N)N)C(=O)N[C@H]1Cc2ccccc2CN(CCC(=O)N[C@@H](CCCCN)C(=O)N[C@@H](CCCCN)C(=O)N2CCC[C@H]2C(=O)N[C@@H](Cc2cccc(O)c2)C(=O)N[C@H](C(=O)N[C@@H](CC(C)C)C(=O)O)C(C)(C)C)C1=O (H-[Dmt][dR][X1]KKP[mTyr][Tle]L-OH) , please. 66
